target system: T1, RADIL, Q96JH8
T1 sequence (Q96JH8 971-1071, limits assumed, looked up): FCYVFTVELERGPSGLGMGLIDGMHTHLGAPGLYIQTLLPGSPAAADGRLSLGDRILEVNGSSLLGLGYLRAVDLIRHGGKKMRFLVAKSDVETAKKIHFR
protocol description: holdup assay
Parameters: key: below the threshold = too weak to quantify, mostly under pKd 3.1 to 4
condition set: plain residues with an end cap or a label only (N-terminal biotin on a linker: ado-ado)
endpoint label: pKd

• TSSMRGMDAV [RSRC2, Q7L4I2] = below the threshold
• PPYRHRNTVV [ERBB4, Q15303] = 4.21
• EVEEFPETSV [TRPV3, Q8NET8] = 3.81
• AKPSRISTVV [IQSEC2, Q5JU85] = 4.32
• DTTVPESEDL [MYOZ2, Q9NPC6] = below the threshold
• KSGKQTMLVV [TRIM29, Q14134;Q14134-2] = 4.46
• NLSIEKETKL [ASNSD1, Q9NWL6] = below the threshold
• LRSPRTPSEV [OR10G3, Q8NGC4] = below the threshold
• TLPRKRMSSI [GPRC6A, Q5T6X5] = below the threshold
• KKAPTNEFYA [SDC4, P31431] = below the threshold
• QPCFNKLFPL [LPXN, O60711] = below the threshold
• EKKTLIGIKL [GOT1L1, Q8NHS2] = below the threshold
• GQEEQVTTRL [TRPC5, Q9UL62] = below the threshold
• YRLAQESGLV [ABCC6, O95255] = 4.22
• SAAKVLTSMC [GHRHR, Q02643] = 3.71
• PRISRSQSEL [CCDC134, Q9H6E4] = below the threshold
• DDPSTAETVL [ABCA7, Q8IZY2] = 3.52
• VKPQVSESKL [ACOT8, O14734] = below the threshold
